B1: tRNA (parent)
chain: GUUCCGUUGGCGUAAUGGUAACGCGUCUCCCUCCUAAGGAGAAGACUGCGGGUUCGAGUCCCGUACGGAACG

- Variants of: B1
- Assay: yeast fitness relative to wild type (ratio to wild type); higher = fitter; tRNA-Arg(CCU), competitive growth, 37 C, YPD
Fewer inactive variants are shown than the library holds.
Value kind: yeast fitness

Which yeast fitness is reported for this variant? GUUCCGUUGGAGUAAUGGUAACGCGUCUCCCUCCUAAGGAGAAGACUGCGGGUUCGAGUCCCGUACAGAGCG
0.562

And the next one, GUGCCGUCGGCGUAAUGGUAACGCGUCUCCCUUCUAAGGAGAAGACUGCGGGUUCGAGUCCCGUAAGGAACG ?
≤ 0.5

And the next one, GUUCGGUUGGCGUAAUGGUAACGCGUCUCUCUCCUAAGGAGAAGACAGCGAGUUCGGGUCCCGUACGGAACG ?
≤ 0.5

And the next one, GUUCCGUUGGCGUGAUGGUAACGCGUCCCCCCUCUAAGGAGAAGACUGCGGGUUCAAGUCCCGUACGGAACG ?
≤ 0.5

And the next one, GUUCCGUUGGCGUAAUGGUAACGCCUCUCCUACCUAAGGAGAAGACUGCGGGUUCGAGUCCCGUACGGAACG ?
≤ 0.5

And the next one, GUUCCGCUGGCGUAAUGGUAACGCGUCUGCCUCCUAAGGAGAAGACUGUGGGUUCGAGUCCCGUACGGAACG ?
0.712

And the next one, GUUCCGUUGGCGUAAUGGUAACGCGUCUCCCACCUAAGGAGCAGACUGCGGGUUCGAGUCCCCUUUGGAACG ?
≤ 0.5

And the next one, GUUCCGUUGGCGUAAUGGUAAAGCGUCUCUCUCCCAAGGAGAAGACUGCGGGUUCGAGUCCCGUACGGAACG ?
≤ 0.5

And the next one, GUUCCGUUGGCGUAAUGGUAACGCAUCUCCCUCCUAAGGAGAAGACUGCGCGUUCGAGUCCCGUACGGAACG ?
0.575

And the next one, GUUCCGUUGGCGUAAUGGUAACGCGUCUCCCUCCUAAGGAGAAGACUGCGGGUUCGAGCCCUGUACGGAACG ?
0.814

And the next one, GUUCCGUUGGCGUAAUGGUAACGCGUCUCCGUCCUAAGGAGAAGACUGCGGGUUCGAGACCCGUUAGGAACG ?
≤ 0.5
